The reported measurements were obtained from patent US20110262445A1.

Molecular target: T1, human IL-23 (human, UniProt P29460 23-328; Q9NPF7 20-189)
T1 construct: Recombinant (Ebioscience); HIS-tagged in flow cytometry, biotinylated in some assays; also called hIL-23; rhIL-23
T1 sequence 1: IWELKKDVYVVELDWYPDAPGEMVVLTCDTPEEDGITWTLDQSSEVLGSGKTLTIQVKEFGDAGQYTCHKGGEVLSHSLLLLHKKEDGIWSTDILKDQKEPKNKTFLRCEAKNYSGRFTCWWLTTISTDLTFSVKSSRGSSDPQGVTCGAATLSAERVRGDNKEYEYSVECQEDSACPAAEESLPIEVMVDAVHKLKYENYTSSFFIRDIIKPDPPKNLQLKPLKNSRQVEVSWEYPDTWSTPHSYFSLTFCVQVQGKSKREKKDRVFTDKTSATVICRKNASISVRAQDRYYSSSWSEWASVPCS
T1 sequence 2: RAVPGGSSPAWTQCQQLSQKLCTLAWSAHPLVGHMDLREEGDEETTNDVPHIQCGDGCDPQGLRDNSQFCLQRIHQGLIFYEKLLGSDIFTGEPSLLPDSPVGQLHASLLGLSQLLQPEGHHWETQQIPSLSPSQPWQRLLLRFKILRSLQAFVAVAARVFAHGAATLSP
Experiment: ELISA, coated IL-23
value kind: binding result

Antibody 199 (antibody, human IgG1, kappa, V domains shown) VH: QVQLVQSGAEVKKPGASVKVSCKASGYTFTDYYLHWVRQAPGQGLEWMGWIDPENGDTEYAPKFQGRVTMTTDTSTSTAYMELRSLRSDDTAVYYCAANKELRYFDVWGQGTMVTVSS VL: EIVMTQSPATLSVSPGERATLSCRASQSISINLHWYQQKPGQAPRLLIYFASQSISGIPARFSGSGSGTEFTLTISSLQSEDFAVYYCQQSNSFPLTFGGGTKVEIKR    binds
Antibody 203 (antibody, human IgG1, kappa, V domains shown) VH: QVQLVQSGAEVKKPGASVKVSCKASGYTFTDYYLHWVRQAPGQGLEWMGWIDPENGDTEHAPKFQGRVTMTTDTSTSTAYMELRSLRSDDTAVYYCAANKELRYFDVWGQGTMVTVSS VL: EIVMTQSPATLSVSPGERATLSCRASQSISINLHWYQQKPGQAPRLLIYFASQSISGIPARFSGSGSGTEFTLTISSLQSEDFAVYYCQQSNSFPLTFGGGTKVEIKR    binds
Antibody 200 (antibody, human IgG1, kappa, V domains shown) VH: QVQLVQSGAEVKKPGASVKVSCKASGYTLTDYYLHWVRQAPGQGLEWMGWIDPENGDTEYAPKFQGRVTMTTDTSTSTAYMELRSLRSDDTAVYYCAANKELRYFDVWGQGTMVTVSS VL: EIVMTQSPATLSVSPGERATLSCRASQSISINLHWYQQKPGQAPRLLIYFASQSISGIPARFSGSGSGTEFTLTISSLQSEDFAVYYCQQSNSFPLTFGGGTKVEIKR    binds
